# Measurement Target: HLA-A*0301 (human)
# Assay Procedure: competition with 125I probe peptide, purified HLA class I
Non-standard residues stand in square brackets, D forms with d. No end group written: not given here. Abu = CC[C@H](N)C(=O)O
Observation Type: IC50 (nM)

KVF[Abu]QLAK [1371.18 KVFBQLAK p53.132.V2B4]
846

(1) BVYSPALNR (B at position 1 is alpha-amino butyric acid (in place of cysteine)) [1371.17 BVYSPALNR p53.124.B1V2R9]
(2) SV[Abu]MGGMNRR [1371.27 SVBMGGMNRR p53.240.V2B3]
Quick one: lower IC50, 1 or 2 ? // return label of chosen record
1
(1: 25 nM, 2: 1000 nM)
